From: patent US11479551B2

biological target: PRMT5/MEP50 complex (Homo sapiens (Human), UniProt O14744); assay: PRMT5:MEP50 FlashPlate Assay (histone H4 peptide substrate, plus and minus MTA); assay type: biochemical; conditions: in the absence of MTA, read-out: IC50
Sequence (O14744 2-637): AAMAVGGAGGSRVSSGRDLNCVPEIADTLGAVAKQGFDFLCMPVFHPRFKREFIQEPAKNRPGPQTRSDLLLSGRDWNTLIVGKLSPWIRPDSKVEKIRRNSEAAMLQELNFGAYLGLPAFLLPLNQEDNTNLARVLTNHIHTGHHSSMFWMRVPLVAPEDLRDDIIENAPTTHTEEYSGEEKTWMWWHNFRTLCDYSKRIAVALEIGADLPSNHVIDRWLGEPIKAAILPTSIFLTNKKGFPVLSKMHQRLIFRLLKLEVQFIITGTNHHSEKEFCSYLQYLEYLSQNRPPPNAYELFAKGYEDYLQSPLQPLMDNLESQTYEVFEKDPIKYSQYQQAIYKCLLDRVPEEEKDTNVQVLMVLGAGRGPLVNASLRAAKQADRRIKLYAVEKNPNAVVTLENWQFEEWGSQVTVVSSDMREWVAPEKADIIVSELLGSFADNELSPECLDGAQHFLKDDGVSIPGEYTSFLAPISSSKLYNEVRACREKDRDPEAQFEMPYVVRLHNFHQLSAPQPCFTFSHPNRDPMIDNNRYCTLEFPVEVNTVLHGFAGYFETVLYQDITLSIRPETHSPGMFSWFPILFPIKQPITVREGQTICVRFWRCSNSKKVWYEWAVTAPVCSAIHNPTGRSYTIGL
Sequence (Q9BQA1 2-342 partner): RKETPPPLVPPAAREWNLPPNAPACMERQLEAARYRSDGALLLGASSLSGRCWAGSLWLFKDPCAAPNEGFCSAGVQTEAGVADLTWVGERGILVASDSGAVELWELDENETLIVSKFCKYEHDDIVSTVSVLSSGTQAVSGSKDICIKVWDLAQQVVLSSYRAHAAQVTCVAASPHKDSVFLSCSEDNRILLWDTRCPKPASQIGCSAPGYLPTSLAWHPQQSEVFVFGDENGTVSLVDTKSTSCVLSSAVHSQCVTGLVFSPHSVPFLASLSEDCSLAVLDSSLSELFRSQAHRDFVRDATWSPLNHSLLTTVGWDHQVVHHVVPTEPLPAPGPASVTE
MEASUREMENT NAME: IC50 (nM)

Query: Please report the measured IC50 for "Cc1ccc(C#N)c(-c2c(-c3ccc4c(=O)[nH]nc(CN)c4c3)cnn2C)c1" tested on PRMT5/MEP50 complex (Homo sapiens (Human), UniProt O14744).
Response: 71

A: NCc1n[nH]c(=O)c2ccc(-c3cnc4ccc(OC5CC5)cn34)cc12
B: Cc1ccc(-c2c(-c3ccc4c(=O)[nH]nc(CN)c4c3)cnn2C)cc1
C: Cc1cn2c(-c3ccc4c(=O)[nH]nc(CN)c4c3)cnc2cn1
Query: # sort list by recorded IC50, greatest to least Returns: the labels arranged in the requested order.
Response: C, A, B

###

target: PRMT5/MEP50 complex (Homo sapiens (Human), UniProt O14744); assay: PRMT5:MEP50 FlashPlate Assay (histone H4 peptide substrate, plus and minus MTA); format: biochemical; conditions: in the absence of MTA, read-out: IC50
pIC50: −log10 of the molar value.
MEASUREMENT NAME: pIC50

Example results:
Query: Quick one: give measured pIC50 for Cc1c(Cl)cncc1-c1ccc2c(=O)[nH]nc(CN)c2c1 [Example 3-56]
Response: 4.94

Query: Quick one: give measured pIC50 for N#Cc1ccc(-c2cncc(-c3ccc4c(=O)[nH]nc(CN)c4c3)c2)c(C#N)c1 [Example 8-2]
Response: 5.50

Query: Quick one: give measured pIC50 for COc1cccc(-c2c(-c3ccc4c(=O)[nH]nc(CN)c4c3)cnn2C)c1 [Example 4-93]
Response: 7.07

Query: Quick one: give measured pIC50 for NCc1n[nH]c(=O)c2ccc(-c3cncs3)cc12 [Example 3-1]
Response: 4.05

Query: Quick one: give measured pIC50 for Cc1c[nH]c2ncc(-c3ccc4c(=O)[nH]nc(CN)c4c3)cc12 [Example 4-40]
Response: 6.56

Query: Quick one: give measured pIC50 for NCc1n[nH]c(=O)c2ccc(-c3cncc(Cc4ccccc4)c3)cc12 [Example 4-50]
Response: 6.34

a: COc1ccc(C#N)c(-c2cncc(-c3ccc4c(=O)[nH]nc(CN)c4c3)c2)c1 [Example 8-8]
b: Cc1c(Cl)cccc1Oc1cncc(-c2ccc3c(=O)[nH]nc(CN)c3c2)c1 [Example 4-75]
Query: Could you please tell me which of these two has the higher pIC50: a or b ? Provide the label of your selected option as the answer.
Response: b
(b: 7.48, a: 6.10)

###

system: PRMT5-dependent Symmetric Di-methyl Arginine signal in HCT116 homozygous MTAP knockout cells; assay: SYM11 In-Cell Western, HCT116 MTAP knockout; format: cell-based; conditions: read-out: In-cell-Western (SYM11) HCT116 MTAP_KO IC50; HCT116 homozygous MTAP knockout cells, 4 days of treatment, SYM11/DRAQ5 ratio
The following compounds are listed with their measured IC50 values.
Write down the numeric answer in nM and omit the unit.

Query: Quick one: give measured IC50 for Cn1ncc(-c2ccc3c(=O)[nH]nc(CN)c3c2)c1-c1c(F)c(Cl)cc(OC2CC2)c1C#N (single isomer, unassigned) [Example 16-8]
Response: 0.8

Read the next record carefully.
Query: Quick one: give measured IC50 for Cn1ncc(-c2ccc3c(=O)[nH]nc(CN)c3c2)c1-c1c(F)c(Cl)cc(OC2CC2)c1C#N (single isomer, unassigned) [Example 16-7]
Response: 1000

###

molecular target: PRMT5/MEP50 complex (Homo sapiens (Human), UniProt O14744); assay: PRMT5:MEP50 FlashPlate Assay (histone H4 peptide substrate, plus and minus MTA); format: biochemical; conditions: IC50 + 2 μM MTA (nM), in the presence of 2 μM MTA
MEASUREMENT NAME: IC50 (nM)

Example results:
Query: Quick one: give measured IC50 for NCc1n[nH]c(=O)c2ccc(-c3cnc4ccccc4c3)cc12 [Example 3-6]
Response: 5100

Query: Quick one: give measured IC50 for Cn1ncc(-c2ccc3c(=O)[nH]nc(CN)c3c2)c1-c1ccccc1C#N [Example 4-100]
Response: 0.5

Query: Quick one: give measured IC50 for NCc1n[nH]c(=O)c2ccc(-c3cncn4cccc34)cc12 [Example 4-13]
Response: 210

Query: Quick one: give measured IC50 for NCc1n[nH]c(=O)c2ccc(-c3cncc(N4CCOCC4)c3)cc12 [Example 3-58]
Response: 510

1: Cc1c(Cl)cncc1-c1ccc2c(=O)[nH]nc(CN)c2c1 [Example 3-56]
2: Cc1ccccc1Sc1cncc(-c2ccc3c(=O)[nH]nc(CN)c3c2)c1 [Example 4-59]
3: NCc1n[nH]c(=O)c2ccc(-c3cnc4c(F)cccn34)cc12 [Example 4-22]
Query: Ascending by IC50, please. Returns: the labels arranged in the requested order.
Response: 2, 3, 1
(2: 2.1 nM, 3: 370 nM, 1: 550 nM)

###

tested on: HCT116 parental cells; test: Proliferation assay (CellTiter-Glo, 10 days of treatment), HCT116 parental; assay type: cell-based; conditions: Homo sapiens, HCT-116, 240 h
MEASUREMENT NAME: pIC50
Scale: negative log10 of molar concentration, which is what pIC50 denotes.

Query: Quick one: give measured pIC50 for "Cn1ncc(-c2ccc3c(=O)[nH]nc(CN)c3c2)c1-c1cc(C2CC2)ccc1C#N"
Response: 5.17

---
Query: Quick one: give measured pIC50 for "CCc1cc(OC)cc(-c2c(-c3ccc4c(=O)[nH]nc(CN)c4c3)cnn2C)c1C#N"
Response: 5.63

Query: Quick one: give measured pIC50 for "Cn1ncc(-c2ccc3c(=O)[nH]nc(CN)c3c2)c1-c1ccc2ncc(Cl)cc2c1C#N"
Response: 5.29

Query: Quick one: give measured pIC50 for "Cn1ncc(-c2ccc3c(=O)[nH]nc(CN)c3c2)c1-c1c(Cl)cc2ccccc2c1C#N"
Response: 5.45

Query: Quick one: give measured pIC50 for "Cn1ncc(-c2ccc3c(=O)[nH]nc(CN)c3c2)c1-c1ccccc1F"
Response: 5.24

Query: Quick one: give measured pIC50 for "Cn1ncc(-c2ccc3c(=O)[nH]nc(CN)c3c2)c1-c1ccc2c(c1C#N)CCCO2"
Response: 5.03

Query: Quick one: give measured pIC50 for "CCOc1ccc(-c2c(-c3ccc4c(=O)[nH]nc(CN)c4c3)cnn2C)cc1C#N"
Response: 5.42

Query: Quick one: give measured pIC50 for "CC(C)c1ccc(-c2c(-c3ccc4c(=O)[nH]nc(CN)c4c3)cnn2C)cc1"
Response: 5.18

###

The following compounds are listed with their measured pIC50 values.
system: HCT116 parental cells; experiment: Proliferation assay (CellTiter-Glo, 10 days of treatment), HCT116 parental; assay type: cell-based; settings: Homo sapiens, HCT-116, 240 h
Scale: negative log10 of molar concentration, which is what pIC50 denotes.

Example results:
Query: Quick one: give measured pIC50 for Cn1ncc(-c2ccc3c(=O)[nH]nc(CN)c3c2)c1-c1cccc(C2CC2)c1C#N [Example 4-198]
Response: 5.13

Query: Quick one: give measured pIC50 for Cn1ncc(-c2ccc3c(=O)[nH]nc(CN)c3c2)c1-c1cc(Cl)cc(Cl)c1 [Example 4-141]
Response: 5.26

Query: Quick one: give measured pIC50 for Cn1ncc(-c2cc(F)c3c(=O)[nH]nc(CN)c3c2)c1-c1ccc2ccccc2c1C#N [Example 10-2]
Response: 5.47

Read the next record carefully.
Query: Quick one: give measured pIC50 for Cn1ncc(-c2ccc3c(=O)[nH]nc(CN)c3c2)c1-c1cc(Cl)cc(OC2CC2)c1C#N [Example 4-188]
Response: 6.04

###

biological target: PRMT5/MEP50 complex (Homo sapiens (Human), UniProt O14744); experiment: PRMT5:MEP50 FlashPlate Assay (histone H4 peptide substrate, plus and minus MTA); assay type: biochemical; settings: in the absence of MTA, read-out: IC50
pIC50: −log10 of the molar value.
MEASUREMENT NAME: pIC50

Query: Please report the measured pIC50 for "CCOc1cncc(-c2ccc3c(=O)[nH]nc(CN)c3c2)c1" tested on PRMT5/MEP50 complex (Homo sapiens (Human), UniProt O14744).
Response: 5.41

P: NCc1n[nH]c(=O)c2ccc(-c3cncc(F)c3)cc12
Q: NCc1n[nH]c(=O)c2ccc(-c3cnc4[nH]cc(C(F)(F)F)c4c3)cc12
R: NCc1n[nH]c(=O)c2ccc(-c3cnc4cc(Cl)ccn34)cc12
S: Cc1ccc(Oc2cncc(-c3ccc4c(=O)[nH]nc(CN)c4c3)c2)cc1
T: Cc1ccc(-c2ccc3c(=O)[nH]nc(CN)c3c2)cn1
Query: # sort list by recorded pIC50, greatest to least Returns: the labels arranged in the requested order.
Response: S, Q, R, P, T
